Where do these numbers come from? They come from patent US11806344B2.

Known AUCINF of a selection of compounds
experiment: Absorption of Compound I of different particle sizes/formulations in male SD rats (Example 3-1); assay type: in vivo; details: intragastric single dose 1.0 mg/kg, 1 mg/kg

# COMPOUND, UNIT_INFO, AUCINF
rows = [
    ("N#Cc1ccc(N2N=C3c4ccc(C(=O)N5CCC(O)CC5)nc4CC[C@@H]3[C@@H]2C2CCCC2)cc1Cl [Compound I with D90 of 21.7 μm]", "ng·h/mL", 854),
    ("N#Cc1ccc(N2N=C3c4ccc(C(=O)N5CCC(O)CC5)nc4CC[C@@H]3[C@@H]2C2CCCC2)cc1Cl [Compound I with D90 of 3.8 μm]", "ng·h/mL", 1045),
    ("N#Cc1ccc(N2N=C3c4ccc(C(=O)N5CCC(O)CC5)nc4CC[C@@H]3[C@@H]2C2CCCC2)cc1Cl [Compound I with D90 of 538 nm]", "ng·h/mL", 1287),
    ("N#Cc1ccc(N2N=C3c4ccc(C(=O)N5CCC(O)CC5)nc4CC[C@@H]3[C@@H]2C2CCCC2)cc1Cl [Compound I with D90 of 41.5 μm]", "ng·h/mL", 545),
    ("N#Cc1ccc(N2N=C3c4ccc(C(=O)N5CCC(O)CC5)nc4CC[C@@H]3[C@@H]2C2CCCC2)cc1Cl [Compound I with D90 of 72.0 μm]", "ng·h/mL", 207),
]
